System: A431
ASSAY INFO: whole-cell filipin (free cholesterol) integrated intensity, Z-score; higher = more cholesterol staining
SETUP CONDITIONS: compound concentration in added solution (µM; 5 µl added to 20 µl cells): 10; 18 h
Where a name gives a salt, the structure may show the parent alone.
ASSAY METRIC: whole-cell filipin (z-score)
Could you keep your reply to the number by itself?

Answered examples (3):
CCOC(=O)C1=C(C)NC(C)=C(C(=O)OCC)C1c1ccccc1/C=C/C(=O)OC(C)(C)C: 0.71
CC(=O)c1ccc2c(c1)N(CCCN(C)C)c1ccccc1S2 [Acetopromazine maleate salt]: 0.736
Clc1cnccn1: 0.139

Note down whole-cell filipin (z-score) recorded for COc1cc(N)c(Cl)cc1C(=O)NC1CCN(CCCOc2ccc(F)cc2)CC1OC (centres undefined) [Cisapride] -0.114

// Input: CC(=O)Oc1cc(C(F)(F)F)ccc1C(=O)O . Output its whole-cell filipin (z-score) only. -0.393

Supply whole-cell filipin (z-score) value. Item: CC(C)NCC(O)COc1ccc(CCOCC2CC2)cc1 (centres undefined) [Betaxolol hydrochloride] 0.139

State, in one line, measured whole-cell filipin (z-score) of c1ccc(CNc2ncnc3nc[nH]c23)cc1 -0.69

Read the entry CC(C(=O)O)c1ccc(N2Cc3ccccc3C2=O)cc1 (centres undefined) and write its reported whole-cell filipin (z-score). -0.0864

Indicate its recorded whole-cell filipin (z-score); the compound in question is CCN(CCO)CCCC(C)Nc1ccnc2cc(Cl)ccc12 (centres undefined) [Hydroxychloroquine sulfate] -0.556

---

Tested on: A431
ASSAY INFO: whole-cell filipin (free cholesterol) integrated intensity, Z-score; higher = more cholesterol staining
SETUP CONDITIONS: compound concentration in added solution (µM; 5 µl added to 20 µl cells): 10; 18 h
Where a name gives a salt, the structure may show the parent alone.
whole-cell filipin (z-score) below -0.2 gives Not satisfied; whole-cell filipin (z-score) at or above it gives Satisfied.

Worked examples, 3 compounds total:
N[C@H]1CONC1=O [(S)-(-)-Cycloserine]: Satisfied
CCOC(=O)[C@H](CCc1ccccc1)N[C@@H](C)C(=O)N1CCC[C@H]1C(=O)O [Enalapril maleate]: Not satisfied
Nc1ccc(S(=O)(=O)Nc2ccccn2)cc1: Not satisfied

Given CCC(=O)O[C@]1(C(=O)SCF)[C@H](C)C[C@H]2[C@@H]3C[C@H](F)C4=CC(=O)C=C[C@]4(C)[C@@]3(F)[C@@H](O)C[C@@]21C [Fluticasone propionate] , state whether its whole-cell filipin (z-score) is at least -0.2. Satisfied

Can CC(=O)OCC(CCn1cnc2cnc(N)nc21)COC(C)=O be said to have whole-cell filipin (z-score) at or above -0.2? Not satisfied

// inclusive: whole-cell filipin (z-score) at least -0.2? input: CC(=O)O[C@]1(C(C)=O)CC[C@H]2[C@@H]3C=C(C)C4=CC(=O)CC[C@@H]4[C@H]3CC[C@@]21C [Nomegestrol acetate] Satisfied

Is the recorded value of whole-cell filipin (z-score) equal to or greater than -0.2 for this compound? CC1(C)S[C@@H]2[C@H](NC(=O)Cc3ccccc3)C(=O)N2[C@H]1C(=O)O [Benzathine benzylpenicillin] Satisfied

In plain terms: is recorded whole-cell filipin (z-score) at least -0.2 for NCc1ccccc1CC(=O)N[C@@H]1C(=O)N2C(C(=O)O)=C(CSc3nnnn3CC(=O)O)CS[C@H]12 [Ceforanide] ? Not satisfied

Confirm if whole-cell filipin (z-score) reported for the compound CN(Cc1cc(Br)cc(Br)c1N)C1CCCCC1 [Bromhexine hydrochloride] is -0.2 or above. Satisfied

Item OCC(O)CN1CCN(c2ccccc2)CC1 (racemic) [Dropropizine (R,S)] with whole-cell filipin (z-score) of -0.2 or above? Not satisfied

Test whether the compound CCC(=O)O[C@]1(C(=O)CCl)[C@@H](C)C[C@H]2[C@@H]3CCC4=CC(=O)C=C[C@]4(C)[C@@]3(F)[C@@H](O)C[C@@]21C [Clobetasol propionate] records whole-cell filipin (z-score) of -0.2 or higher. Satisfied

Would you say O=C(c1ccc(F)cc1)C1CCN(CCn2c(=O)[nH]c3ccccc3c2=O)CC1 [Ketanserin tartrate hydrate] shows whole-cell filipin (z-score) at minimum -0.2? Satisfied

Exam item: decide whether the reported whole-cell filipin (z-score) for N=C(N)NCc1cccc(I)c1 [Iobenguane sulfate] is at least -0.2. Not satisfied

In plain terms: is recorded whole-cell filipin (z-score) at least -0.2 for CC(=O)[C@@]1(O)CC[C@H]2[C@@H]3C[C@H](C)C4=CC(=O)C=C[C@]4(C)[C@@]3(F)[C@@H](O)C[C@@]21C ? Not satisfied

Identify whether the reported whole-cell filipin (z-score) of the following compound is -0.2 or greater: C=C1/C(=C\C=C2/CCC[C@]3(C)[C@@H]([C@H](C)/C=C/[C@@H](O)C4CC4)CC[C@@H]23)C[C@@H](O)C[C@@H]1O Satisfied

---

System: HeLa MZ
ASSAY INFO: LBPA endosome anti-LBPA integrated intensity (sum per cell), Z-score; higher = more LBPA staining
SETUP CONDITIONS: compound concentration in added solution (µM; 5 µl added to 20 µl cells): 10; 18 h
Counter-ions that a name gives are not always drawn.
Quick rule: LBPA endosome anti-LBPA integrated intensity (z-score) of at least -0.009 means t, below that means f.

Would you please look over these solved cases?
c1ccc2c(c1)CCCC2C1=NCCN1 (stereo unspecified) [Tetrahydrozoline hydrochloride]: t
CC(=O)N1CCN(c2ccc(OCC3COC(Cn4ccnc4)(c4ccc(Cl)cc4Cl)O3)cc2)CC1 (stereo unspecified): t
CN(C)CCOC(=O)C(c1ccccc1)C1(O)CCCC1 (stereo unspecified) [Cyclopentolate hydrochloride]: t
CCOc1ccc2ccccc2c1C(=O)N[C@@H]1C(=O)N2[C@@H]1SC(C)(C)[C@@H]2C(=O)O [Nafcillin sodium salt monohydrate]: f
O=C(O)c1cc(/N=N/c2ccc(S(=O)(=O)Nc3ccccn3)cc2)ccc1O: t
O=C(O)CNC(=O)C(CS)Cc1ccccc1 (stereo unspecified): f

Decide: is the reported value of LBPA endosome anti-LBPA integrated intensity (z-score) for Fc1ccc([C@@H]2CCNC[C@H]2COc2ccc3c(c2)OCO3)cc1 [Paroxetine Hydrochloride] equal to or greater than -0.009? t

Does LBPA endosome anti-LBPA integrated intensity (z-score) meet or surpass -0.009 for NC(Cc1cc(I)c(Oc2cc(I)c(O)c(I)c2)c(I)c1)C(=O)O (stereo unspecified) ? f

Could you please find out whether CN(C)[C@@H]1C(O)=C(C(N)=O)C(=O)[C@@]2(O)C(O)=C3C(=O)c4c(O)ccc(Cl)c4[C@@](C)(O)[C@H]3C[C@@H]12 [Chlortetracycline hydrochloride] has LBPA endosome anti-LBPA integrated intensity (z-score) that meets -0.009 or exceeds it? f

Could you tell me if the measured LBPA endosome anti-LBPA integrated intensity (z-score) of Cc1onc(-c2c(Cl)cccc2Cl)c1C(=O)N[C@@H]1C(=O)N2[C@@H]1SC(C)(C)[C@@H]2C(=O)O [Dicloxacillin sodium salt hydrate] reaches -0.009 or more? f

Is the recorded value of LBPA endosome anti-LBPA integrated intensity (z-score) equal to or greater than -0.009 for this compound? CCC(=O)O[C@]1(C(=O)CCl)[C@@H](C)C[C@H]2[C@@H]3CCC4=CC(=O)C=C[C@]4(C)[C@@]3(F)[C@@H](O)C[C@@]21C [Clobetasol propionate] f

Does the compound CSc1ccc2c(c1)C(N1CCN(C)CC1)Cc1ccccc1S2 (stereo unspecified) [Methiothepin maleate] have recorded LBPA endosome anti-LBPA integrated intensity (z-score) that is -0.009 or more? t

Identify whether the reported LBPA endosome anti-LBPA integrated intensity (z-score) of the following compound is -0.009 or greater: NCCNCCNCCNCCN [Tetraethylenepentamine pentahydrochloride] f

Hi team, for CN(C)C(=N)NC(=N)N [Metformin hydrochloride] , is the recorded LBPA endosome anti-LBPA integrated intensity (z-score) at or above -0.009? f

Form field: LBPA endosome anti-LBPA integrated intensity (z-score) at least -0.009? Entry: CCC(=O)OCC(=O)[C@@]1(OC(=O)CC)[C@H](C)C[C@H]2[C@H]3[C@H]([C@@H](O)C[C@@]21C)[C@@]1(C)C=CC(=O)C=C1C[C@H]3Cl [Alclometasone dipropionate] t

Please tell me: is the compound CCC1NC(=O)c2cc(S(N)(=O)=O)c(Cl)cc2N1 (stereo unspecified) at or over -0.009 in terms of LBPA endosome anti-LBPA integrated intensity (z-score)? f

---

Form field: whole-cell filipin (z-score) (one value per entry).
System: A431
ASSAY INFO: whole-cell filipin (free cholesterol) integrated intensity, Z-score; higher = more cholesterol staining
SETUP CONDITIONS: compound concentration in added solution (µM; 5 µl added to 20 µl cells): 10; 18 h
Structures can show the parent of a compound that is named as a salt.
Give the figure by itself; no unit, no explanation.

Cc1ccsc1/C=C/C1=NCCCN1C [Morantel tartrate]: -1.09
COc1c(N2CCNC(C)C2)c(F)cc2c(=O)c(C(=O)O)cn(C3CC3)c12 (centres undefined): -0.124
O=C(NCC(O)CO)c1c(I)c(C(=O)NCC(O)CO)c(I)c(N(CCO)C(=O)CO)c1I (centres undefined): -0.43

Supply whole-cell filipin (z-score) value. Item: Cc1noc(NS(=O)(=O)c2ccc(N)cc2)c1C -0.79

Provide whole-cell filipin (z-score) value for the following molecule: CC(Oc1ccccc1)C(=O)N[C@@H]1C(=O)N2[C@@H]1SC(C)(C)[C@@H]2C(=O)O (some centres undefined) [Phenethicillin potassium salt] -0.612

Please give the documented whole-cell filipin (z-score) of CN(C)CCN1C(=O)c2ccccc2N(C)c2ccccc21 [Dibenzepine hydrochloride] -0.676

Provide only the value of recorded whole-cell filipin (z-score) for CN(Cc1ccc(C(C)(C)C)cc1)Cc1cccc2ccccc12 [Butenafine Hydrochloride] -0.644

Consider the molecule CCN(CC)CCOC(=O)C(c1ccccc1)c1ccccc1 [Adiphenine hydrochloride] . State its measured whole-cell filipin (z-score). -1.14

Look up and state reported whole-cell filipin (z-score) for CCCCCCC[N+](CC)(CC)CCCCc1ccc(Cl)cc1 [Clofilium tosylate] -0.98

Origin of measurements: the supplement of paper PMC6607015
